# tested-target: Prostaglandin G/H synthase 2 (Homo sapiens)
# Sequence (P35354 whole entry): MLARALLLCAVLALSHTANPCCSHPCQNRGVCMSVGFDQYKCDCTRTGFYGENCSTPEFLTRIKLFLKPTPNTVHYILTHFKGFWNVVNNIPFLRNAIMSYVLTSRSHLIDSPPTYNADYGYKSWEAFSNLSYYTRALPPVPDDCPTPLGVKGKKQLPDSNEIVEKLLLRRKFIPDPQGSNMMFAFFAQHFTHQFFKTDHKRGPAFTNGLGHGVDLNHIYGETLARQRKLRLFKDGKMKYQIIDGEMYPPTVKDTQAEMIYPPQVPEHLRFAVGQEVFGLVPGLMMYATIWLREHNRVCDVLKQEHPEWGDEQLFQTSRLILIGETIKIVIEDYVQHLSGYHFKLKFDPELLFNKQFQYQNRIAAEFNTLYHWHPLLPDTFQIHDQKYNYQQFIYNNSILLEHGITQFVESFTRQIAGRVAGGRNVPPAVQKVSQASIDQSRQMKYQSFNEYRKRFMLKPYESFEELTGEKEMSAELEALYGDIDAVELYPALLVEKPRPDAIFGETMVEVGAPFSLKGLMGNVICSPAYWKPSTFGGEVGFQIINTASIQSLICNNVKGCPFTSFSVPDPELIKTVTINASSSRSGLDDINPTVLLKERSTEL
# method-summary: Inhibition of COX2 in human whole blood assessed as effect on LPS-stimulated PGE2 production
Listing: IC50 of selected compounds

molecular-string	IC50 [µM]
COc1cc(/C=N/c2ccc(S(N)(=O)=O)cc2)cc(OC)c1O	2.71
COc1cc(/C=N/c2ccc(S(N)(=O)=O)cc2)cc(OC)c1OC	2.93
COc1ccc(/N=C/c2ccc(S(N)(=O)=O)cc2)cc1	4.14
Cc1ccc(/C=N/c2ccc(S(N)(=O)=O)cc2)cc1	4.94
NS(=O)(=O)c1ccc(/N=C/c2cccc(O)c2)cc1	2.78
NS(=O)(=O)c1ccc(/C=N/c2ccc(O)cc2)cc1	5.09
CN(C)c1ccc(/N=C/c2ccc(S(N)(=O)=O)cc2)cc1	1.95
Cc1ccc(/N=C/c2ccc(S(N)(=O)=O)cc2)cc1	4.62
COC(=O)c1ccc(/N=C/c2ccc(S(N)(=O)=O)cc2)cc1	3.72
COC(=O)c1cc(/N=C/c2ccc(S(N)(=O)=O)cc2)ccc1O	3.13
COc1cc(/C=N/c2ccc(S(N)(=O)=O)cc2)ccc1O	2.95
NS(=O)(=O)c1ccc(/N=C/c2ccccc2)cc1	2.87
NS(=O)(=O)c1ccc(/N=C/c2ccc(O)cc2)cc1	3.42
CCOc1cc(/C=N/c2ccc(S(N)(=O)=O)cc2)ccc1O	3.69
NS(=O)(=O)c1ccc(/C=N/c2ccc(C(F)(F)F)cc2)cc1	6.54
COc1ccc(/C=N/c2ccc(S(N)(=O)=O)cc2)cc1O	3.5
COc1ccc(/C=N/c2ccc(S(N)(=O)=O)cc2)cc1	9.88
COc1cc(/C=N/c2ccc(S(N)(=O)=O)cc2)cc(OC)c1	3.4
NS(=O)(=O)c1ccc(/N=C/c2ccc(C(F)(F)F)cc2)cc1	4.6
NS(=O)(=O)c1ccc(/N=C/c2ccc(O)c(O)c2)cc1	2.85
COc1cccc(/C=N/c2ccc(S(N)(=O)=O)cc2)c1	5.45
NS(=O)(=O)c1ccc(/N=C/c2cccc([N+](=O)[O-])c2)cc1	6.75
COc1ccc(/C=N/c2ccc(S(N)(=O)=O)cc2)cc1OC	3.09
NS(=O)(=O)c1ccc(/C=N/c2ccc(F)cc2)cc1	4.38
NS(=O)(=O)c1ccc(/N=C/c2ccc(F)cc2)cc1	2.22
